Target: KRAS-G12D (Homo sapiens, UniProt P01116, G12D)
Sequence (P01116 with tags, fused parts or gaps isoform P01116-2 G12D): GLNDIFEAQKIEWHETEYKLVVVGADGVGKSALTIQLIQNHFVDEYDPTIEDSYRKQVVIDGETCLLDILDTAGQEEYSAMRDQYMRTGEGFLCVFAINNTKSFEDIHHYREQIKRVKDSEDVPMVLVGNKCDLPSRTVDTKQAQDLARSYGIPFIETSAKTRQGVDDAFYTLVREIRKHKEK
Experiment: SOS-catalyzed nucleotide exchange assay (Procedure A, TR-FRET), KRAS-G12D
Format: biochemical
Details: nucleotide exchange, read-out: KRAS G12D GNE IC50
Please provide measured pIC50 for the entries that follow.
Scale for pIC50: -log10 of concentration given in mol/L; no unit attached.

Request: Name the recorded pIC50 for Cc1cc2[nH]nc(C#N)c2c(-c2nccc3c4c(N5CCOC[C@@](C)(O)C5)nc(OC[C@@]56CCCN5C[C@H](F)C6)nc4n(C)c23)c1C(F)(F)F (single isomer, unassigned) .
Response: 6.47

Request: // next record C=C(c1c(C)cc2[nH]ncc2c1-c1nccc2c1sc1nc(OC[C@@]34CCCN3C[C@H](F)C4)nc(N3CCOC[C@@](C)(O)C3)c12)C(F)(F)F
Response: 7.03

Request: // next record Cc1cc2[nH]ncc2c(-c2nccc3c2sc2nc(OC[C@@]45CCCN4C[C@H](F)C5)nc(NC4CCOC4)c23)c1C(F)(F)F (stereo partly drawn)
Response: 5.31

Request: // next record C[C@@]1(O)COCCN(c2nc(OC[C@]3(CN4CC5CC5C4)CC3(F)F)nc3sc4c(-c5c(C6(F)CC6)c(Cl)cc6[nH]ncc56)nccc4c23)C1 (stereo partly drawn)
Response: 7.60

Request: // next record Cc1cc2[nH]ncc2c(-c2nccc3c2sc2nc(OC[C@@]45CCCN4C[C@H](F)C5)nc(N4CCOC[C@@](C)(O)C4)c23)c1SC(F)(F)F
Response: 6.78

Request: // next record CN(C)C1COC2C[C@@]21COc1nc(N2CCOC[C@@](C)(O)C2)c2c(n1)sc1c(-c3c(C4(F)CC4)c(Cl)cc4[nH]ncc34)nccc12 (stereo partly drawn)
Response: 8.09

Request: // next record CCC1CCc2cc3[nH]ncc3c(-c3nccc4c3sc3nc(OC[C@@]56CCCN5C[C@H](F)C6)nc(N5CCOC[C@@](C)(O)C5)c34)c21 (stereo partly drawn)
Response: 8.65

Request: // next record Cc1cc2[nH]ncc2c(-c2nccc3c2sc2nc(OC[C@@]45CCCN4C[C@H](F)C5)nc(N4CCOCC5(CC(C)O5)C4)c23)c1C(F)(F)F (stereo partly drawn)
Response: 7.06

Request: // next record C[C@@]1(O)COCCN(c2nc(OC[C@@]34CCCN3C[C@H](F)C4)nc3sc4c(-c5c(-c6cccs6)c(Cl)cc6[nH]ncc56)nccc4c23)C1
Response: 6.97

Request: // next record Cc1cc2[nH]ncc2c(-c2nccc3c2oc2nc(OC[C@@]45CCCN4C[C@H](F)C5)nc(N4CCOC[C@@](C)(O)C4)c23)c1C(F)(F)F
Response: 6.21

Request: // next record Cc1cc2[nH]ncc2c(-c2nccc3c2sc2nc(OC[C@@]45CCCN4C[C@H](F)C5)nc(N4CCOC[C@@](C)(O)C4)c23)c1-c1ccsc1
Response: 6.89

Request: // next record Cc1cc2[nH]ncc2c(-c2nccc3c2sc2nc(OC[C@@]45CCCN4C[C@H](F)C5)nc(N4CCOC[C@@](C)(O)C4)c23)c1[C@@H]1C[C@H]1C (atropisomer, axis not shown; (aS))
Response: 7.93

* * *

Please provide measured pIC50 for the entries that follow.
Target: KRAS-G12D (Homo sapiens, UniProt P01116, G12D)
Experiment: SOS-catalyzed nucleotide exchange assay (Procedure A, TR-FRET), KRAS-G12D
Format: biochemical
Conditions: nucleotide exchange, read-out: KRAS G12D GNE IC50
Scale for pIC50: -log10 of concentration given in mol/L; no unit attached.

Request: Name the recorded pIC50 for C[C@@]1(O)COCCN(c2nc(OC[C@@]34CCCN3C[C@H](F)C4)nc3sc4c(-c5c(C(F)(F)F)c(C(F)F)cc6[nH]ncc56)nccc4c23)C1 .
Response: 6.80

Request: // next record C#Cc1c(F)ccc2cc(O)cc(-c3nccc4c5c(N6CCOC[C@@](C)(O)C6)nc(OC[C@@]67CCCN6C[C@H](F)C7)nc5n(C)c34)c12
Response: 8.94

Request: // next record C/C=C/c1c(C)cc2[nH]ncc2c1-c1nccc2c1sc1nc(OC[C@@]34CCCN3C[C@H](F)C4)nc(N3CCOC[C@@](C)(O)C3)c12
Response: 7.00
